Task for the reader: assign each of the following compounds its reported pIC50.
- target.under.test: nucleotide exchange on hKRASG12C mediated by hSOS1 (Homo sapiens)
- Sequence (Q07889 564-1049): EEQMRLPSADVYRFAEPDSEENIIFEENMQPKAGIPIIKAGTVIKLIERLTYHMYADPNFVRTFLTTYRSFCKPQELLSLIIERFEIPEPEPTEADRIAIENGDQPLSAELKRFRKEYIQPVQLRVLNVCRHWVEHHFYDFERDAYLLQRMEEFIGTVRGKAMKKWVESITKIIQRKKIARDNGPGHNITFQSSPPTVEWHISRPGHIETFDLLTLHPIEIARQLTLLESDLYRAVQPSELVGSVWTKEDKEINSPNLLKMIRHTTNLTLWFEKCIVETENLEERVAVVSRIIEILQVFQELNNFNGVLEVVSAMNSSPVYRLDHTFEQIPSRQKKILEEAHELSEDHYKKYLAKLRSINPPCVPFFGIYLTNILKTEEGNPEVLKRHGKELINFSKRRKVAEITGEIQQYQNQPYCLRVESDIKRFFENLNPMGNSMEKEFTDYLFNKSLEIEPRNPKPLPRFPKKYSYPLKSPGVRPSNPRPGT
pIC50: −log10 of the molar value.

For orientation, consider the following solved cases.
| compound | pIC50 |
| --- | --- |
| Cc1nc(N[C@H](C)c2cccc(C(F)(F)C(C)(C)O)c2F)c2cc3c(c(C)c2n1)N(C)C(=O)C3(C)C | 6.89 to 7.51 |
| Cc1nc(N[C@H](C)c2cccc(C(F)(F)C(C)(C)O)c2F)c2cc3c(cc2n1)N(C)C(=O)C3(C)C | 7.52 to 9.00 |
| COCC[C@@]1(OC)C(=O)N(C)c2cc3c(N[C@H](C)c4cccc(C(F)(F)C(C)(C)O)c4F)nc(C)nc3cc21 (single isomer, unassigned) [Compound 132b] | 7.52 to 9.00 |
| Cc1nc(N[C@H](C)c2cccc(C(F)(F)[C@](C)(O)CO)c2F)c2cc3c(cc2n1)OC(C)(C)C(=O)N3C (racemic) [Compound 23b] | 7.52 to 9.00 |

Prompt: Read off the recorded pIC50 for Cc1nc(N[C@H](C)c2cccc(C(F)(F)CO)c2F)c2cc3c(cc2n1)O[C@@H](C)CN3C (racemic) [Compound 36a]
Response: 7.52 to 9.00
